Origin of measurements: patent US20190380978A1

Assay system: UniProt P10632
Sequence (P10632 whole entry): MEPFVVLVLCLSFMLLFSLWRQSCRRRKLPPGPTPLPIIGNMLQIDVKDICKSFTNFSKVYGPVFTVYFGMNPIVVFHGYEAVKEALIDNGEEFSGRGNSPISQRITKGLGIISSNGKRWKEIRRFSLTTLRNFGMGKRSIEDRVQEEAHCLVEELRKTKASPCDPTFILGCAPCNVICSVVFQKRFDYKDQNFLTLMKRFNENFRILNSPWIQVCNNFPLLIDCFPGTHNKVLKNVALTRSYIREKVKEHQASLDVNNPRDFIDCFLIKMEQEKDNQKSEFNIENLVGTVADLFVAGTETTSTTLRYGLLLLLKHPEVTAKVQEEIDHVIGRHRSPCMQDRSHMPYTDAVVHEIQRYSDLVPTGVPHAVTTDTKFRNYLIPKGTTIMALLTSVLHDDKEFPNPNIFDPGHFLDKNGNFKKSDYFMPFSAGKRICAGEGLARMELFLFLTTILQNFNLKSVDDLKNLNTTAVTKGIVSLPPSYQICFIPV
Test: CYP inhibition assay, CYP2C8
Type: in vitro ADME
Measurement setup: human; 40 μM
Property measured: inhibition at 40 µM (%)

Compound | Assay system | Property measured | Assay value
N[C@@]1(c2ccccc2Cl)CCC[C@@H](O)C1=O [2R,6R-hydroxynorketamine] | UniProt P10632 | inhibition at 40 µM | 8.35

###

Test system UGT1A1 (Homo sapiens), IC50 listed for each of the compounds.
Where a name gives a salt, the structure may show the parent alone.
Property measured: IC50 (nM)

Compound | Value qualifier | Assay value
COC(=O)N[C@H](C(=O)N[C@@H](Cc1ccccc1)[C@@H](O)CN(Cc1ccc(-c2ccccn2)cc1)NC(=O)[C@@H](NC(=O)OC)C(C)(C)C)C(C)(C)C | = | 153
N[C@@]1(c2ccccc2Cl)CCC[C@@H](O)C1=O [2R-6R-Hydroxynorketamine Hydrochloride, 2R,6R-hydroxynorketamine hydrochloride] | > | 100000

###

Assay system: CYP3A4 (Homo sapiens, UniProt P08684)
Sequence (P08684 whole entry): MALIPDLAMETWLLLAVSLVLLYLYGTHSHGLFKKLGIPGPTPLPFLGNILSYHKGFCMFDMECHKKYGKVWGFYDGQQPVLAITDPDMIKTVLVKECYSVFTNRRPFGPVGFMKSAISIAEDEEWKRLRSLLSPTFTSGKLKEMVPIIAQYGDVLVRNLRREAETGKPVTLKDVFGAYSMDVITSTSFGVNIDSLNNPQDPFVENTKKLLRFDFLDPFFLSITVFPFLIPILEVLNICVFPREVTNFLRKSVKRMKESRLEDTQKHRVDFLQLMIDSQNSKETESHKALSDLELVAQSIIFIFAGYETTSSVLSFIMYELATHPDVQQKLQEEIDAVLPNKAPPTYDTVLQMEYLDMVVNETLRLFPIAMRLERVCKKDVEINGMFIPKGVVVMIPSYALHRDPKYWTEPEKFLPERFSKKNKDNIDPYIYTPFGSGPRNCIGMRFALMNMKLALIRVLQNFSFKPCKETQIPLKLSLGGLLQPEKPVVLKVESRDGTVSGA
Test: CYP inhibition assay, CYP3A4 (substrates midazolam and testosterone)
Assay type: in vitro ADME
Measurement setup: human, probe testosterone; Substrate = testosterone, 1 μM

Compound | Assay system | Units of measure | inhibition at 1 µM
N[C@@]1(c2ccccc2Cl)CCC[C@@H](O)C1=O [2R,6R-hydroxynorketamine] | CYP3A4 (Homo sapiens, UniProt P08684) | % | -0.509

###

Assay system: CYP1A2 (Homo sapiens, UniProt P05177)
Sequence (P05177 1-516): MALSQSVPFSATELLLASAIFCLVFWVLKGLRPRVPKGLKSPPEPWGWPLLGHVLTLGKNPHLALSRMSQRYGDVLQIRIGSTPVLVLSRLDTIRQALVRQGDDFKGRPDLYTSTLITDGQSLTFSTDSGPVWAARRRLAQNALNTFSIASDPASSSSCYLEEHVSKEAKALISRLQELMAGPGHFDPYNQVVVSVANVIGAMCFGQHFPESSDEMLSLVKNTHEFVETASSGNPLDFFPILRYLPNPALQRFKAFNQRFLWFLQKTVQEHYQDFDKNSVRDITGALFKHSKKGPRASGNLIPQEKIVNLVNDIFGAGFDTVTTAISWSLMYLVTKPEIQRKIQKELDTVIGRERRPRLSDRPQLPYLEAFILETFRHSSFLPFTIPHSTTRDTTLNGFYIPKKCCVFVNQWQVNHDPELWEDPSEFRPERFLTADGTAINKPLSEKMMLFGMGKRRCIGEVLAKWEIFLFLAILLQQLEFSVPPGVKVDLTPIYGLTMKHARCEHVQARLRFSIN
Test: CYP inhibition assay, CYP1A2
Type: in vitro ADME

Molecule | IC50
N[C@@]1(c2ccccc2Cl)CCC[C@@H](O)C1=O [2R,6R-hydroxynorketamine] | ~100 µM

###

Assay system: CYP3A4 (Homo sapiens, UniProt P08684)
Test: CYP inhibition assay, CYP3A4 (substrates midazolam and testosterone)
Type: in vitro ADME
Measurement setup: human, probe testosterone; Substrate = testosterone, 4 μM

Molecule | inhibition at 4 µM, %
N[C@@]1(c2ccccc2Cl)CCC[C@@H](O)C1=O [2R,6R-hydroxynorketamine] | 7.04

###

Assay system: CYP2B6 (Homo sapiens, UniProt P20813)
Sequence (P20813 whole entry): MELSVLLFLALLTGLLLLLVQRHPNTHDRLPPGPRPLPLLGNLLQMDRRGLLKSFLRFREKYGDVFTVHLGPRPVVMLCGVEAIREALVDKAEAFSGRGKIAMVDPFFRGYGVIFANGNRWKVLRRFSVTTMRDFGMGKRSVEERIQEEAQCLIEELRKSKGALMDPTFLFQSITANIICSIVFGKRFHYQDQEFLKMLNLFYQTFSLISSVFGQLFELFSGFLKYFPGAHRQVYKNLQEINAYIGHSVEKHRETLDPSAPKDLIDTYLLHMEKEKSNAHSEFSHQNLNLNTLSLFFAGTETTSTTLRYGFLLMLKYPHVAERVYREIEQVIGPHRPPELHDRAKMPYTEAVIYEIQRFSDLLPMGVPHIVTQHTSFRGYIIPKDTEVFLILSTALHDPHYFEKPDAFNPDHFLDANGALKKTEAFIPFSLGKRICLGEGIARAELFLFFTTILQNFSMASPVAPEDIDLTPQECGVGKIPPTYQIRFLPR
Test: CYP inhibition assay, CYP2B6
Format: in vitro ADME
Measurement setup: human; 40 μM

Compound | inhibition at 40 µM, %
N[C@@]1(c2ccccc2Cl)CCC[C@@H](O)C1=O [2R,6R-hydroxynorketamine] | 14.8
